TARGET_OR_SYSTEM: T1, IL-11R on STAT3 Reporter (Luciferase)-HEK293 cells (UniProt Q14626 23-422)
T1 sequence (looked up): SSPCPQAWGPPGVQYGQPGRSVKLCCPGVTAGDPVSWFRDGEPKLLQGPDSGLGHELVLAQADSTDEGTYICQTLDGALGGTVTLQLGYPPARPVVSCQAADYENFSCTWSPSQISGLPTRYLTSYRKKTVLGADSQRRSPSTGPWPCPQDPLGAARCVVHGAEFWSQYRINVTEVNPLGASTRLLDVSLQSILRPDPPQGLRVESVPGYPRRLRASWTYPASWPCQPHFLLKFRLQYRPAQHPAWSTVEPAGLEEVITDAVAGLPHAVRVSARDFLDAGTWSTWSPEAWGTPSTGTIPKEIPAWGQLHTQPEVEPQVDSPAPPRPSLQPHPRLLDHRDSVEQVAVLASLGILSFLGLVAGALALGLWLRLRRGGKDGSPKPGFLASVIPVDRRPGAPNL
TEST_METHOD_NOTES: cell-based or functional assay
EXPERIMENTAL_ENDPOINT: IC50, STAT3 luciferase reporter assay (HEK293), inhibiting IL-11, Assay 2 (µg/mL)
Entry rule: numbers only, all in µg/mL.

For orientation, consider the following solved cases.
>  <BINDER>
mAb15 (antibody, V domains shown, Expressed as human IgG4 (S228P EU)) VH: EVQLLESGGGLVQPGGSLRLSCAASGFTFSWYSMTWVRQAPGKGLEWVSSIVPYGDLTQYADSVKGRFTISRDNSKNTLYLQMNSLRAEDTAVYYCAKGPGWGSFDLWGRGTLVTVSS VL: DIQMTQSPSSLSASVGDRVTITCQASQDINNYLNWYQQKPGKAPKLLIYDASNLQTGVPSRFSGSGSGTDFTFTISSLQPEDIATYYCQQHETQTPTFGPGTKVDIK

>  <REPORTED_MEASUREMENT>
0.33

$$$$
>  <BINDER>
mAb6 (antibody, V domains shown, Expressed as human IgG4 (S228P EU)) VH: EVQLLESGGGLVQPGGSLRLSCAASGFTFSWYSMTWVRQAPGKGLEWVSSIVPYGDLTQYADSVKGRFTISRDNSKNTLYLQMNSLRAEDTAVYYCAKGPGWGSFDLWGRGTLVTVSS VL: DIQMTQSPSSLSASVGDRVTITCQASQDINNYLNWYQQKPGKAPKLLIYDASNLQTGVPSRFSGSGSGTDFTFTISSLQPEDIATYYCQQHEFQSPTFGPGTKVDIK

>  <REPORTED_MEASUREMENT>
0.39

$$$$
>  <BINDER>
mAb9 (antibody, V domains shown, Expressed as human IgG4 (S228P EU)) VH: EVQLLESGGGLVQPGGSLRLSCAASGFTFSWYSMTWVRQAPGKGLEWVSGIVPYGDLTQYADSVKGRFTISRDNSKNTLYLQMNSLRAEDTAVYYCAKGPGWGSFDLWGRGTLVTVSS VL: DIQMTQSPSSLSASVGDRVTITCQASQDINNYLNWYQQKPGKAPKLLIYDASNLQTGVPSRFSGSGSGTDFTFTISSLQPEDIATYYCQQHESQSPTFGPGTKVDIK

>  <REPORTED_MEASUREMENT>
0.1

$$$$
>  <BINDER>
mAb5 (antibody, V domains shown, Expressed as human IgG4 (S228P EU); also called mAb5 IL11RA Ab) VH: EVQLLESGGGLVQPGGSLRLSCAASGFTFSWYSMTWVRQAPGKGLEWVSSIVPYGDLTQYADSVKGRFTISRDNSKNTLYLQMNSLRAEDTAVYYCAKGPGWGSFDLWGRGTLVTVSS VL: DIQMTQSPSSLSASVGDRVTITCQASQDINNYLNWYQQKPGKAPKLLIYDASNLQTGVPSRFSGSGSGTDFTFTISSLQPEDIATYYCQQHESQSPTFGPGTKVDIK

>  <REPORTED_MEASUREMENT>
0.18

$$$$

mAb8 (antibody, V domains shown, Expressed as human IgG4 (S228P EU)) VH: EVQLLESGGGLVQPGGSLRLSCAASGFTFSSYAMSWVRQAPGKGLEWVSSIVPYGDLTQYADSVKGRFTISRDNSKNTLYLQMNSLRAEDTAVYYCAKGPGWGSFDLWGRGTLVTVSS VL: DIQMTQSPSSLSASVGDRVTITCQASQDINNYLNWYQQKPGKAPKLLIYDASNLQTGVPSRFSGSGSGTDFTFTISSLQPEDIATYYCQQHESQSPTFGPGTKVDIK has a reported IC50, STAT3 luciferase reporter assay (HEK293), inhibiting IL-11, Assay 2 of 1.25
